Measured IC50 by item
Molecular target: ACVRL1 (Homo sapiens)
Construct: purchased ThermoFisher
Sequence (P37023 22-503): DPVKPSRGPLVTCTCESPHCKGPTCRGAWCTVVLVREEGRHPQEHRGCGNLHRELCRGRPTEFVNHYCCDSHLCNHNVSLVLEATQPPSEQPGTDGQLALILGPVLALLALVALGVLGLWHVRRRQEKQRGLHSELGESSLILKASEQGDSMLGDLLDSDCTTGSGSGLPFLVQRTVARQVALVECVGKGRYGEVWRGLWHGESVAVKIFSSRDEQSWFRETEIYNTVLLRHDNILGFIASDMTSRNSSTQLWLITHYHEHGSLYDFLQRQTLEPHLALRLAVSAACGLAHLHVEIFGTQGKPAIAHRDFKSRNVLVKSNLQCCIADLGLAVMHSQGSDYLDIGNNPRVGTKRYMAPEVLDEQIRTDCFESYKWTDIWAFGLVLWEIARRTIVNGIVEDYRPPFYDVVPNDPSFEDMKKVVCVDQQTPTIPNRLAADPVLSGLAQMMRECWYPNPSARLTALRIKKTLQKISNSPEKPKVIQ
Experiment: Promega NanoBRET live-cell target engagement, ACVRL1
Format: cell-based
Details: in cellulo; NI = No inhibition at 40 μM

CNC(=O)[C@H]1C[C@H](n2c(-c3cc(OC)cc(OC)c3)nc3ccc(C(=O)NCCCN(C)C)cc32)C1 | > 40 µM

Please find the next compound below.
Which IC50 value belongs to CNC(=O)[C@H]1C[C@H](n2c(-c3cc(OC)ccc3OC)nc3ccc(C(=O)NCCCN(C)C)cc32)C1 ?
> 40 µM

* * *

Molecular target: ACVRL1 (Homo sapiens)
Construct: purchased ThermoFisher
Assay: ThermoFisher (Lantha) kinase assay, inhibition of ACVRL1
Type: biochemical
Settings: in vitro, NA = not active at 1 μM
endpoint_name: IC50 (nM)

The cases that follow already have their IC50 on record.
CNC(=O)[C@H]1C[C@H](n2c(-c3cc(OC)c(OC)c(OC)c3)nc3ccc(C(=O)NCCCN4CCN(c5cccc(C)c5C)CC4)cc32)C1 | 12.3
CNC(=O)[C@H]1C[C@H](n2c(-c3cc(OC)ccc3OC)nc3ccc(C(=O)NCCCN(C)C)cc32)C1 | 78.7

P = CNC(=O)[C@H]1CC[C@H](n2c(-c3cc(I)c(OC)c(OC)c3)nc3ccc(C(=O)NCCCN4CCN(c5ccccc5)CC4)cc32)C1
Q = CNC(=O)[C@H]1C[C@H](n2c(-c3ccc(F)c(OC)c3)nc3ccc(C(=O)NCCCN(C)C)cc32)C1
R = CNC(=O)[C@H]1C[C@H](n2c(-c3cc(OC)cc(OC)c3)nc3ccc(C(=O)NCCCN(C)C)cc32)C1
Would you mind ranking these compounds by ascending IC50? To answer, arrange all of the labels according to the requested order.
P, R, Q
(P: 14.8 nM, R: 72.2 nM, Q: 190 nM)

* * *

Measured Metabolism MLM (Min) by item
Experiment: Metabolic stability in mouse liver microsomes
Assay type: in vitro ADME
Settings: some cells add hours in brackets

The cases that follow already have their Metabolism MLM (Min) on record.
CNC(=O)[C@H]1C[C@H](n2c(-c3cc(OC)c(OC)c(OC)c3)nc3ccc(C(=O)NCCCN(C)C)cc32)C1 | 807.1 (13.4 h) Min
CNC(=O)[C@H]1C[C@H](n2c(-c3cc(OC)c(OC)c(OC)c3)nc3ccc(C(=O)NCC4CCN(C)CC4)cc32)C1 | 220.4 (3.67 h) Min
COc1cc(-c2nc3ccc(C(=O)NCCCN(C)C)cc3n2C2CCC2)cc(OC)c1OC | 505 (8.4 h) Min

Which Metabolism MLM (Min) value belongs to COc1cc(F)cc(-c2nc3ccc(C(=O)NCCCN(C)C)cc3n2C2CCC2)c1 ?
78.5 (1.3 h) Min

* * *

Biological target: ACVR1^WT (Homo sapiens)
Sequence (Q04771 21-509): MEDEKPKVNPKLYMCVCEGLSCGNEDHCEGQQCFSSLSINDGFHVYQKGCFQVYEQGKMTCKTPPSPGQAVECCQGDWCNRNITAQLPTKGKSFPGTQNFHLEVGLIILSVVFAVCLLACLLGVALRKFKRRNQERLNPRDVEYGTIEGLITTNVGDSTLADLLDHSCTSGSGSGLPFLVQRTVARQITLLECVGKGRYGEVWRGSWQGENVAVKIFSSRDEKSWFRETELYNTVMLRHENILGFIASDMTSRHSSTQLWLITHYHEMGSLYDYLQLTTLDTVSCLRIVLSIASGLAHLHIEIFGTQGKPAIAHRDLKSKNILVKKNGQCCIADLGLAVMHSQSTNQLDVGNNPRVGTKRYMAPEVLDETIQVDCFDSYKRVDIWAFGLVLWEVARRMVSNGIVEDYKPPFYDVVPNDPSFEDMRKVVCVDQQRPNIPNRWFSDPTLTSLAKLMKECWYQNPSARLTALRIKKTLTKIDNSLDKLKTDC
Test: Promega NanoBRET live-cell target engagement, ACVR1
Settings: in cellulo; NI = No inhibition at 40 μM
pIC50: −log10 of the molar value.
endpoint_name: pIC50

The cases that follow already have their pIC50 on record.
COc1cc(-c2nc3ccc(C(=O)NCCCN4CCN(c5ccccc5)CC4)cc3n2C2CCC2)cc(OC)c1OC | 6.25
COc1cc(-c2nc3ccc(C(=O)NCCCN4CCN(C)C(c5ccccc5)C4)cc3n2C2CCC2)cc(OC)c1OC (stereo not shown) | 5.57

I = COc1cc(-c2nc3ccc(C(=O)NCCCN4CCN(c5ccccc5)C(=O)C4)cc3n2C2CCC2)cc(OC)c1OC
II = CNC(=O)[C@H]1C[C@H](n2c(-c3cc(F)cc(OC)c3)nc3ccc(C(=O)NCCCN4CCN(c5ccccc5)CC4)cc32)C1
Two entries are listed, I and II . Which one carries the higher pIC50? Write down the label attached to your selection.
I
(I: 5.74, II: 5.28)

* * *

Target: UniProt Q04771
endpoint_name: IC50 (nM)

The cases that follow already have their IC50 on record.
CNC(=O)[C@H]1CC[C@H](n2c(-c3cc(OC)c(OC)c(OC)c3)nc3ccc(C(=O)NCCCN4CCN(c5ccccc5)CC4)cc32)C1 | 5.3
CNC(=O)[C@@H]1CC[C@@H](n2c(-c3cc(OC)c(OC)c(OC)c3)nc3ccc(C(=O)NCCCN4CCN(c5ccccc5)CC4)cc32)C1 | 5.7
CNC(=O)[C@H]1C[C@H](n2c(-c3cc(OC)ccc3OC)nc3ccc(C(=O)NCCCN(C)C)cc32)C1 | 25.1
CNC(=O)[C@H]1C[C@H](n2c(-c3cc(F)cc(OC)c3)nc3ccc(C(=O)NCCCN(C)C)cc32)C1 | 87.1
CNC(=O)[C@H]1C[C@H](n2c(-c3cccc(OC)c3)nc3ccc(C(=O)NCCCN(C)C)cc32)C1 | 84

P = CNC(=O)[C@H]1CC[C@H](n2c(-c3cc(OC)c(OC)c(OC)c3)nc3ccc(C(=O)NC4COc5ccc(Cl)cc54)cc32)C1 (some centres unmarked)
Q = CNC(=O)[C@H]1C[C@H](n2c(-c3ccc(F)c(OC)c3)nc3ccc(C(=O)NCCCN(C)C)cc32)C1
Two entries are listed, P and Q . Which one carries the higher IC50? Write down the label attached to your selection.
Q

* * *

Experiment: Metabolic stability in mouse liver microsomes
Type: in vitro ADME
Conditions: some cells add hours in brackets
endpoint_name: Metabolism MLM (min)

CNC(=O)[C@H]1C[C@H](n2c(-c3cccc(OC)c3)nc3ccc(C(=O)NCCCN4CCN(c5ccccc5)CC4)cc32)C1 | 8.6
CNC(=O)[C@H]1C[C@H](n2c(-c3cc(OC)c(OC)c(OC)c3)nc3ccc(C(=O)NCCCN4CCN(c5ccccc5)CC4)cc32)C1 | 5.7
COc1cc(-c2nc3ccc(C(=O)NCCCN4CCN(c5cccc(C)c5C)CC4)cc3n2C2CCC2)cc(OC)c1OC | 0
CNC(=O)[C@H]1C[C@H](n2c(-c3cc(F)cc(OC)c3)nc3ccc(C(=O)NCCCN4CCN(c5ccccc5)CC4)cc32)C1 | 7.1

a = COc1cc(-c2nc3ccc(C(=O)NCCCN4CCN(C5CCCCC5)CC4)cc3n2C2CCC2)cc(OC)c1OC
b = COc1cc(-c2nc3ccc(C(=O)NCCCN4CCN(c5ccccc5)C(=O)C4)cc3n2C2CCC2)cc(OC)c1OC
c = COc1cc(-c2nc3ccc(C(=O)NCCCN4CCN(c5ccccn5)CC4)cc3n2C2CCC2)cc(OC)c1OC
Would you mind ranking these compounds by ascending Metabolism MLM? To answer, arrange all of the labels according to the requested order.
c, b, a

* * *

Molecular target: ACVR1^R206H (Homo sapiens, UniProt Q04771, R206H)
Sequence (Q04771 21-509 R206H): as the sequence (Q04771 21-509) above, with R186H counted along it
Assay: Promega NanoBRET live-cell target engagement, ACVR1 (R206H)
Conditions: in cellulo; NI = No inhibition at 40 μM
endpoint_name: IC50 (µM)

The cases that follow already have their IC50 on record.
CNC(=O)[C@H]1C[C@H](n2c(-c3cc(F)cc(OC)c3)nc3ccc(C(=O)NCCCN4CCN(c5ccccc5)CC4)cc32)C1 | 9.2
CNC(=O)[C@H]1C[C@H](n2c(-c3cccc(OC)c3)nc3ccc(C(=O)NCCCN4CCN(c5ccccc5)CC4)cc32)C1 | 3.4

1 = COc1cc(-c2nc3ccc(C(=O)NCCCN4CCN(c5ccccn5)CC4)cc3n2C2CCC2)cc(OC)c1OC
2 = COc1cc(OC)cc(-c2nc3ccc(C(=O)NCCCN4CCN(c5cccc(C)c5C)CC4)cc3n2C2CCC2)c1
3 = CNC(=O)[C@H]1C[C@H](n2c(-c3ccc(OC)c(OC)c3)nc3ccc(C(=O)NCCCN4CCN(c5cccc(C)c5C)CC4)cc32)C1
4 = COc1cc(-c2nc3ccc(C(=O)NCC4(O)CCN(Cc5ccccc5)CC4)cc3n2C2CCC2)cc(OC)c1OC
5 = CNC(=O)[C@H]1C[C@H](n2c(-c3cc(OC)cc(OC)c3)nc3ccc(C(=O)NCCCN(C)C)cc32)C1
Please rank these molecules by IC50 in descending order. To answer, arrange all of the labels according to the requested order.
5, 2, 3, 1, 4

I = COc1cc(-c2nc3ccc(C(=O)NCCCN4CCN(C5CCCCC5)CC4)cc3n2C2CCC2)cc(OC)c1OC
II = COc1cc(-c2nc3ccc(C(=O)NCCCN4CCN(C)C(c5ccccc5)C4)cc3n2C2CCC2)cc(OC)c1OC (centres unmarked)
Two entries are listed, I and II . Which one carries the higher IC50? Write down the label attached to your selection.
II
(II: 4.28 µM, I: 0.849 µM)

* * *

Test: Metabolic stability in human liver microsomes
Format: in vitro ADME
Conditions: some cells add hours in brackets
endpoint_name: Metabolism HLM (min)

The cases that follow already have their Metabolism HLM on record.
COc1cc(-c2nc3ccc(C(=O)NCCCN4CCN(c5ccccc5)CC4)cc3n2C2CCC2)cc(OC)c1OC | 7.8
CNC(=O)[C@H]1C[C@H](n2c(-c3cccc(OC)c3)nc3ccc(C(=O)NCCCN4CCN(c5ccccc5)CC4)cc32)C1 | 23

I = COc1cc(-c2nc3ccc(C(=O)NCCCN4CCN(c5ccccc5)C(=O)C4)cc3n2C2CCC2)cc(OC)c1OC
II = CNC(=O)[C@H]1C[C@H](n2c(-c3cc(F)cc(OC)c3)nc3ccc(C(=O)NCCCN4CCN(c5ccccc5)CC4)cc32)C1
III = CNC(=O)[C@H]1C[C@H](n2c(-c3cc(OC)c(OC)c(OC)c3)nc3ccc(C(=O)NCCCN4CCN(C)CC4)cc32)C1
IV = COc1cc(-c2nc3ccc(C(=O)NCCCN4CCN(C5CCCCC5)CC4)cc3n2C2CCC2)cc(OC)c1OC
Please rank these compounds by Metabolism HLM in descending order. To answer, arrange all of the labels according to the requested order.
III, IV, II, I

From: patent US20260217660A1
